Tested on: Streptococcus pyogenes
PROTOCOL: Antibacterial activity against Streptococcus pyogenes C203 by microbroth dilution susceptibility assay
Assay type: functional
RECORDED ENDPOINT: MIC (µg/mL)
Number only, in µg/mL; omit the unit.

For the compound Cc1c(N2CC[C@H]([C@@H](C)N)C2)c(F)cc2c(=O)n(N)c(=O)n(C3CC3)c12 , the measured MIC on Streptococcus pyogenes was 0.25

For the compound O=C(O)c1cn(C2CC2)c2cc(N3CCNCC3)c(F)cc2c1=O , the measured MIC on Streptococcus pyogenes was 2

For the compound Cc1c(N2CCC(C3(N)CC3)C2)c(F)cc2c(=O)n(N)c(=O)n(C3CC3)c12 (stereo not given) , the measured MIC on Streptococcus pyogenes was 0.03

For the compound Cc1c(N2CC[C@@H]([C@@H](C)N)C2)c(F)cc2c(=O)n(N)c(=O)n(C3CC3)c12 , the measured MIC on Streptococcus pyogenes was 0.06

For the compound Cc1c(N2CCC(C(C)N)C2)c(F)cc2c(=O)n(N)c(=O)n(C3CC3)c12 (stereo not given) , the measured MIC on Streptococcus pyogenes was 0.03
